System: CAOV3
test.details: Primary qHTS to identify gynecologic anti-cancer compounds using libraries of approved drugs and bioactive compounds (AID 1345084); note: nearly all actives have a fitted effect of over 55% in size
condition.summary: Gynecologic cancer cell panel viability, ATPlite luminescence, 48 h; series mostly up to 57.5 µM
Inconclusive results are not listed. Calls of active or inactive are those of the source. Calls come from the whole dose curve; as a rule, active = well fitted cell-killing curve with a large enough effect; inconclusive = small, poorly fitted or top-dose-only effect, or effect the other way; inactive = flat fitted curve, though single readings scatter.
Field 'call' accepts active, inactive

Worked examples, 5 molecules total:
smiles	answer.label
NCC(=O)Nc1ccc(-n2nc(C(F)(F)F)cc2-c2ccc3c(ccc4ccccc43)c2)cc1	inactive
CCCCCCCCCC(=O)N[C@@H](Cc1c[nH]c2ccccc12)C(=O)N[C@H](CC(N)=O)C(=O)N[C@@H](CC(=O)O)C(=O)N[C@@H]1C(=O)NCC(=O)N[C@@H](CCCN)C(=O)N[C@@H](CC(=O)O)C(=O)N[C@H](C)C(=O)N[C@@H](CC(=O)O)C(=O)NCC(=O)N[C@H](CO)C(=O)N[C@@H]([C@@H](C)CC(=O)O)C(=O)N[C@@H](CC(=O)c2ccccc2N)C(=O)O[C@@H]1C	inactive
C=CC(=O)Nc1cccc(Oc2nc(Nc3ccc(N4CCN(C)CC4)cc3)ncc2Cl)c1	active
COc1ccc(-n2nc(C(N)=O)c3c2C(=O)N(c2ccc(N4CCCCC4=O)cc2)CC3)cc1	inactive
Clc1cccc(-c2nnnn2Cc2cccnc2)c1Cl	inactive

Please share the test call associated with `NC1(Cc2ccc(Cl)cc2)CCN(c2ncnc3[nH]ccc23)CC1` .
inactive

Please share the test call associated with `Cc1c(C)n(Cc2ccc(-c3ccccc3C(=O)O)cc2)c2ccc(C(=O)N[C@@H](C)c3ccc([N+](=O)[O-])cc3)cc12` .
inactive
